# system_name: T1, HLA-A*0201 HLA class I MHC monomer (iTopia Epitope Discovery System, coated on plate) (human)
# T1 construct: Placeholder peptide stripped; also called HLA-A2; MHC class I monomer
# test_method_notes: iTopia EDS multiparametric score (binding, off-rate, affinity)
measurement_type: iScore

[
  {
    "binder": "DQNLWHIGR (Synthetic nonapeptide of human nectin4; the range counts on nectin4) [Nectin4 peptide 255 (DQNLWHIGR)]",
    "measurement_type": "iScore",
    "experimental_result": 0.539
  },
  {
    "binder": "GTSDVVTVV (Synthetic nonapeptide of human nectin4; the range counts on nectin4) [Nectin4 peptide 35 (GTSDVVTVV)]",
    "measurement_type": "iScore",
    "experimental_result": 0.539
  },
  {
    "binder": "HILHVSFLA (Synthetic nonapeptide of human nectin4; the number is the start position in nectin4 (the range counts on nectin4)) [Nectin4 peptide 238 (HILHVSFLA)]",
    "measurement_type": "iScore",
    "experimental_result": 1.43
  },
  {
    "binder": "LLASFTGRC (Synthetic nonapeptide of human nectin4; the range counts on nectin4; also called Pep N° 21) [Nectin4 peptide 21 (LLASFTGRC)]",
    "measurement_type": "iScore",
    "experimental_result": 0.727
  },
  {
    "binder": "GVIAALLFC (Synthetic nonapeptide of human nectin4; the range counts on nectin4) [Nectin4 peptide 354 (GVIAALLFC)]",
    "measurement_type": "iScore",
    "experimental_result": 0.845
  },
  {
    "binder": "VIAALLFCL (Synthetic nonapeptide of human nectin4; the range counts on nectin4) [Nectin4 peptide 355 (VIAALLFCL)]",
    "measurement_type": "iScore",
    "experimental_result": 0.888
  },
  {
    "binder": "VVVGVIAAL (Synthetic nonapeptide of human nectin4; the range counts on nectin4) [Nectin4 peptide 351 (VVVGVIAAL)]",
    "measurement_type": "iScore",
    "experimental_result": 0.784
  },
  {
    "binder": "AVTSEFHLV (Synthetic nonapeptide of human nectin4; the range counts on nectin4) [Nectin4 peptide 203 (AVTSEFHLV)]",
    "measurement_type": "iScore",
    "experimental_result": 0.533
  },
  {
    "binder": "ILHVSFLAE (Synthetic nonapeptide of human nectin4; the range counts on nectin4) [Nectin4 peptide 239 (ILHVSFLAE)]",
    "measurement_type": "iScore",
    "experimental_result": 0.51
  },
  {
    "binder": "LVSASVVVV (Synthetic nonapeptide of human nectin4; the range counts on nectin4) [Nectin4 peptide 345 (LVSASVVVV)]",
    "measurement_type": "iScore",
    "experimental_result": 0.626
  },
  {
    "binder": "AALLFCLLV (Synthetic nonapeptide of human nectin4; the range counts on nectin4) [Nectin4 peptide 357 (AALLFCLLV)]",
    "measurement_type": "iScore",
    "experimental_result": 0.619
  },
  {
    "binder": "ALLFCLLVV (Synthetic nonapeptide of human nectin4; the range counts on nectin4) [Nectin4 peptide 358 (ALLFCLLVV)]",
    "measurement_type": "iScore",
    "experimental_result": 0.71
  },
  {
    "binder": "LLFCLLVVV (Synthetic nonapeptide of human nectin4; the range counts on nectin4) [Nectin4 peptide 359 (LLFCLLVVV)]",
    "measurement_type": "iScore",
    "experimental_result": 0.674
  },
  {
    "binder": "ALLHSKYGL (Synthetic nonapeptide of human nectin4; the range counts on nectin4; also called Pep N° 80) [Nectin4 peptide 80 (ALLHSKYGL)]",
    "measurement_type": "iScore",
    "experimental_result": 0.815
  },
  {
    "binder": "RSYSTLTTV (Synthetic nonapeptide of human nectin4; the range counts on nectin4) [Nectin4 peptide 443 (RSYSTLTTV)]",
    "measurement_type": "iScore",
    "experimental_result": 0.521
  },
  {
    "binder": "FQARLRLRV (Synthetic nonapeptide of human nectin4; the range counts on nectin4) [Nectin4 peptide 137 (FQARLRLRV)]",
    "measurement_type": "iScore",
    "experimental_result": 0.66
  },
  {
    "binder": "SMNGQPLTC (Synthetic nonapeptide of human nectin4; the range counts on nectin4) [Nectin4 peptide 215 (SMNGQPLTC)]",
    "measurement_type": "iScore",
    "experimental_result": 0.689
  },
  {
    "binder": "LLLLASFTG (Synthetic nonapeptide of human nectin4; the range counts on nectin4) [Nectin4 peptide 19 (LLLLASFTG)]",
    "measurement_type": "iScore",
    "experimental_result": 0.659
  }
]

Source listed as patent US20140178394A1.
